# Tested on: EGFR Exon 20 InsNPH Ba/F3
# TEST_DETAILS: CellTiter-Glo cell viability, EGFR Exon 20 InsNPH Ba/F3
# Type: cell-based
# CONDITION_LABEL: Mus musculus, BaF3, 72 h, read-out: EGFR Exon 20 InsNPH Ba/F3 CTG IC50
pIC50: −log10 of the molar value.
Give pIC50 for every item shown.

Would you please look over these solved cases?
- C=CC(=O)Nc1cc(-c2c(-c3cnn(C)c3)[nH]c3ncc(C(=O)OC(C)C)c(C)c23)ccc1C: 7.00 to 7.30
- C=CC(=O)Nc1cc(-c2c(-c3cnn(CCO)c3)[nH]c3ncc(C(=O)OC(C)C)c(C)c23)ccc1C: 6.30 to 7.00
- C=CC(=O)Nc1cc(-c2c(-c3cn[nH]c3)[nH]c3ncc(C(=O)OC(C)C)c(C)c23)ccc1C: 6.30 to 7.00

Need pIC50 for each of these molecules.
1. C=CC(=O)Nc1cc(-c2c(-c3cn(C)cn3)[nH]c3ncc(C(=O)OC(C)C)c(C)c23)ccc1C
2. C=CC(=O)Nc1cc(-c2c(-c3cnn(C)c3)[nH]c3ncc(-c4cnn(CCN(C)C)c4)cc23)ccc1C

1: 6.30 to 7.00; 2: 5.00 to 6.00

Need pIC50 for each of these molecules.
1. C=CC(=O)Nc1cc(-c2c(-c3cnn(C)c3)[nH]c3ncc(-c4cnn(CC(C)C)c4)cc23)ccc1C
2. C=CC(=O)Nc1cc(-c2c(-c3cnn(CCN4CCOCC4)c3)[nH]c3ncc(C(=O)OC(C)C)c(C)c23)ccc1C

1. 7.00 to 7.30
2. 6.30 to 7.00

Source listed as patent EP3868759A1.
